test: Cmax in C57BL/6 mouse brain at 100 mg/kg, ip administered as single dose by UPLC-MS analysis; type: ADME, organism-based; design: dose 100 mg/kg, route intraperitoneal
quantity measured: Cmax (ng/mL)
Use ng/mL as the unit, but write only the number.

Query: Reported Cmax for CC1(C)NC(=O)N(CCn2ccnc2)C1=O : what is it?
Response: 7.3

* * *

assay: Cmax in C57BL/6 mouse serum at 100 mg/kg, ip administered as single dose by UPLC-MS analysis; assay type: ADME, organism-based; set-up: dose 100 mg/kg, route intraperitoneal
quantity measured: Cmax (µg/mL)
Use µg/mL as the unit, but write only the number.

Query: Reported Cmax for CC1(C)NC(=O)N(CCn2ccnc2)C1=O : what is it?
Response: 79.9

* * *

Target protein (sequence): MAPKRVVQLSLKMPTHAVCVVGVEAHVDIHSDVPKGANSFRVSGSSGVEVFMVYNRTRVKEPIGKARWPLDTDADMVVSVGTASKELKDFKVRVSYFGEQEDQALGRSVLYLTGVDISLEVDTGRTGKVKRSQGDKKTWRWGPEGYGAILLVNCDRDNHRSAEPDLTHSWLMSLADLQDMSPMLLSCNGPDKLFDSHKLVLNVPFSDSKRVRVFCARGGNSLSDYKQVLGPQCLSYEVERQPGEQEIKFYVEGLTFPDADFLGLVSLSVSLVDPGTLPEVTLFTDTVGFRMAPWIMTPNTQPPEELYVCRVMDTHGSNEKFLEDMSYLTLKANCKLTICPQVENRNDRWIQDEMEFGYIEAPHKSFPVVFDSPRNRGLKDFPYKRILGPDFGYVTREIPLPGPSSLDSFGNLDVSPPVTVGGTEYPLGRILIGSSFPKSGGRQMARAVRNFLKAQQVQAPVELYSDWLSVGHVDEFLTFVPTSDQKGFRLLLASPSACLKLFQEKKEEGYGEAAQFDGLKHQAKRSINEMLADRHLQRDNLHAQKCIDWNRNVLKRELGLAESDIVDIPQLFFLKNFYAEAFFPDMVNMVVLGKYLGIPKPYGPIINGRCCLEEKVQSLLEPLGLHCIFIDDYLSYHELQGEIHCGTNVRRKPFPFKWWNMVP
quantity measured: pKi
Remember, pKi is on a log scale: it is -log10 of the molar concentration.

Query: Reported pKi for Cc1nccn1CCN1C(=O)NC(C)(C)C1=O : what is it?
Response: 2.62

Query: Try this molecule too: CC1(C)NC(=O)N(CN2CCNCC2)C1=O
Response: 3.35

Query: Try this molecule too: CC1(C)NC(=O)N(CCc2nnn[nH]2)C1=O
Response: 3.42

* * *

assay: Tmax in C57BL/6 mouse serum at 100 mg/kg, ip administered as single dose by UPLC-MS analysis; type: ADME, organism-based
quantity measured: Tmax (min)
Use min as the unit, but write only the number.

Query: Reported Tmax for CC1(C)NC(=O)N(CCn2ccnc2)C1=O : what is it?
Response: 5

* * *

assay: Elimination rate constant in C57BL/6 mouse serum at 100 mg/kg, ip administered as single dose by UPLC-MS analysis; format: ADME, organism-based
quantity measured: k el (s⁻¹)
Use s⁻¹ as the unit, but write only the number.

Query: Reported k el for CC1(C)NC(=O)N(CCn2ccnc2)C1=O : what is it?
Response: 0.000917

* * *

assay: Toxicity in MOG peptide/complete freund's adjuvant/pertussis toxin-induced C57BL/6 mouse autoimmune encephalomyelitis model assessed as death at 100 mg/kg, ip administered once daily for 40 days measured during compound dosing (reference value: 21%); type: organism-based; settings: in vivo, read-out: Activity
Below, each entry is listed alongside its reported mortality at 960 h.
Use % as the unit, but write only the number.

>>> experimental_value("CC1(C)NC(=O)N(CCc2nnn[nH]2)C1=O")
8

Query: Reported mortality at 960 h for CC1(C)NC(=O)N(CCn2ccnc2)C1=O : what is it?
Response: 0

Attribution: ChEMBL document CHEMBL4028813
